Item-by-item account of log2 fold change of degron read counts
Target Desc: T1, CRBN, Q96SW2;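 further: pooled lentiviral library of zinc finger degron-EGFP fusions in mCherry-positive Jurkat cells, FACS-sorted after compound exposure, with degron abundance counted by next-generation sequencing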
T1 chain: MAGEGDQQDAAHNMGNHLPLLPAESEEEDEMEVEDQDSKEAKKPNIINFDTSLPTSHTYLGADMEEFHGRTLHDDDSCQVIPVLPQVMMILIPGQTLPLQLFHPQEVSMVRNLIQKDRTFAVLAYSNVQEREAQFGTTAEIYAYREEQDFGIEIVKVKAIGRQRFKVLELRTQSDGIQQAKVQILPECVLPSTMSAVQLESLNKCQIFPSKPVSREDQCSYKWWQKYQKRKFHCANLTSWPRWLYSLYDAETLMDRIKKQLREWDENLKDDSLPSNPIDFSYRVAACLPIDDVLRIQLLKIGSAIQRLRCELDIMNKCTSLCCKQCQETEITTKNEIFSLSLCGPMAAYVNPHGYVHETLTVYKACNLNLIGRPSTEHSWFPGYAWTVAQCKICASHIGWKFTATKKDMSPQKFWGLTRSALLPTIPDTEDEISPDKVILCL
Protocol Details: log2 fold change of degron read counts, EGFP-low vs EGFP+ sorted cells (limma voom), compound-induced degradation; higher = more compound-induced degradation of the degron-EGFP fusion; degrons are variants of IKZF1/3 zinc finger 2; compound dose not given here
Study Conditions: Jurkat; 18 h; compound: compound 22 (5-morpholino-thalidomide)
The full ranking holds about 8,300 sequences; the median of “log2 fold change of degron read counts, EGFP-low vs EGFP+ sorted cells (limma voom), compound-induced degradation” is about -1.1, and the highest 2% start at about 3.2. Only a selection was taken, and the highest values are over-represented in it overall.
Measured Parameter: log2 fold change of degron read counts

>>> measured_number("FLCSVCGHQFTQKGNLLRHIKL [46F_47L_49S_50V_52G_53H_54Q_55F_67L_, Q9UKT9]")
-2.7
>>> measured_number("FKCDVCGAVFTQKGNLLRHIKL [46F_47K_49D_50V_52G_53A_54V_55F_67L_, Q9UKT9]")
-3.42
>>> measured_number("FMCPICGADFTQKGNLLRHIKL [46F_47M_49P_50I_52G_53A_54D_55F_67L_, Q9UKT9]")
-0.0353
>>> measured_number("FRCPICGRLFTQKGNLLRHIKL [46F_47R_49P_50I_52G_53R_54L_55F_67L_, Q9UKT9]")
-0.827
>>> measured_number("FFCNQCGRDFTQKGNLLRHIKL [46F_47F_49N_50Q_52G_53R_54D_55F_67L_, Q9UKT9]")
-3.38
>>> measured_number("FYCPICGRVFTQKGNLLRHIKL [46F_47Y_49P_50I_52G_53R_54V_55F_67L_, Q9UKT9]")
-0.155
>>> measured_number("FACPICGAMFTQKGNLLRHIKL [46F_47A_49P_50I_52G_53A_54M_55F_67L_, Q9UKT9]")
1.12
>>> measured_number("FTCEVCGAAFTQKGNLLRHIKL [46F_47T_49E_50V_52G_53A_54A_55F_67L_, Q9UKT9]")
3.24
>>> measured_number("FACPICGAPFTQKGNLLRHIKL [46F_47A_49P_50I_52G_53A_54P_55F_67L_, Q9UKT9]")
3.03
>>> measured_number("FKCEVCGAHFTQKGNLLRHIKL [46F_47K_49E_50V_52G_53A_54H_55F_67L_, Q9UKT9]")
-3.17
>>> measured_number("LCCPICGFKCTQKGNLLRHIKL [46L_47C_49P_50I_52G_53F_54K_55C_67L_, Q9UKT9]")
1.91
>>> measured_number("FLCPVCGAEFTQKGNLLRHIKL [46F_47L_49P_50V_52G_53A_54E_55F_67L_, Q9UKT9]")
-1.09
>>> measured_number("FQCPICGAPFTQKGNLLRHIKL [46F_47Q_49P_50I_52G_53A_54P_55F_67L_, Q9UKT9]")
3.6
>>> measured_number("FWCEICGRHFTQKGNLLRHIKL [46F_47W_49E_50I_52G_53R_54H_55F_67L_, Q9UKT9]")
0.665
>>> measured_number("FECPQCGAPFTQKGNLLRHIKL [46F_47E_49P_50Q_52G_53A_54P_55F_67L_, Q9UKT9]")
-2.37
>>> measured_number("FHCEVCGAKFTQKGNLLRHIKL [46F_47H_49E_50V_52G_53A_54K_55F_67L_, Q9UKT9]")
1.93
>>> measured_number("FACEICGHNFTQKGNLLRHIKL [46F_47A_49E_50I_52G_53H_54N_55F_67L_, Q9UKT9]")
-3.62
>>> measured_number("FYCPICGRFFTQKGNLLRHIKL [46F_47Y_49P_50I_52G_53R_54F_55F_67L_, Q9UKT9]")
-0.851
>>> measured_number("FECEICGADFTQKGNLLRHIKL [46F_47E_49E_50I_52G_53A_54D_55F_67L_, Q9UKT9]")
-2.74
>>> measured_number("FVCEVCGAKFTQKGNLLRHIKL [46F_47V_49E_50V_52G_53A_54K_55F_67L_, Q9UKT9]")
1.89
>>> measured_number("LGCEICGFICTQKGNLLRHIKL [46L_47G_49E_50I_52G_53F_54I_55C_67L_, Q9UKT9]")
-0.0429
>>> measured_number("FTCNVCGAAFTQKGNLLRHIKL [46F_47T_49N_50V_52G_53A_54A_55F_67L_, Q9UKT9]")
1.08
>>> measured_number("FICDVCGALFTQKGNLLRHIKL [46F_47I_49D_50V_52G_53A_54L_55F_67L_, Q9UKT9]")
-0.923
>>> measured_number("FNCEVCGAKFTQKGNLLRHIKL [46F_47N_49E_50V_52G_53A_54K_55F_67L_, Q9UKT9]")
0.318
>>> measured_number("FSCEVCGAAFTQKGNLLRHIKL [46F_47S_49E_50V_52G_53A_54A_55F_67L_, Q9UKT9]")
3.21
>>> measured_number("FYCEVCGAKFTQKGNLLRHIKL [46F_47Y_49E_50V_52G_53A_54K_55F_67L_, Q9UKT9]")
3.66
>>> measured_number("FDCEVCGAAFTQKGNLLRHIKL [46F_47D_49E_50V_52G_53A_54A_55F_67L_, Q9UKT9]")
0.14
>>> measured_number("FMCPICGAMFTQKGNLLRHIKL [46F_47M_49P_50I_52G_53A_54M_55F_67L_, Q9UKT9]")
-0.22
>>> measured_number("FMCPICGAPFTQKGNLLRHIKL [46F_47M_49P_50I_52G_53A_54P_55F_67L_, Q9UKT9]")
3.49
